Lipid Concentration-induced 50% Peptide Binding, 3POPC/1POPG Vesicle values by entry
# Measurement protocol: Tryptophan fluorescent binding assay, 3POPC/1POPG vesicles
# Experimental context: 50 μM peptide, PBS pH 7.4, lipid per peptide
Please reply with the bare figure in L/P and do not write the unit itself.

CC(C)C[C@H](NC(=O)CN)C(=O)N[C@@H](CC(C)C)C(=O)N[C@@H](CCC(=O)O)C(=O)N[C@@H](CC(C)C)C(=O)N[C@@H](CC(C)C)C(=O)N[C@@H](CCC(=O)O)C(=O)N[C@@H](CC(C)C)C(=O)N[C@@H](CC(C)C)C(=O)N[C@@H](CC(C)C)C(=O)N[C@@H](Cc1c[nH]cn1)C(=O)N[C@@H](C)C(=O)N[C@@H](C)C(=O)NCC(=O)N[C@@H](Cc1c[nH]c2ccccc12)C(N)=O = 0.50

Please examine the following record next.
Write down Lipid Concentration-induced 50% Peptide Binding, 3POPC/1POPG Vesicle measured for item CC(C)C[C@H](NC(=O)CN)C(=O)N[C@@H](CC(C)C)C(=O)N[C@@H](CC(=O)O)C(=O)N[C@@H](CC(C)C)C(=O)N[C@@H](CC(C)C)C(=O)N[C@@H](CCCCN)C(=O)N[C@@H](CC(C)C)C(=O)N[C@@H](CC(C)C)C(=O)N[C@@H](CC(C)C)C(=O)N[C@@H](Cc1c[nH]cn1)C(=O)N[C@@H](C)C(=O)N[C@@H](C)C(=O)NCC(=O)N[C@@H](Cc1c[nH]c2ccccc12)C(N)=O
0.46

###

# Measurement protocol: ANTS/DPX liposome leakage assay, POPC vesicles
# Type: biochemical
# Experimental context: 0.5 mM vesicles, pH 4.8, lipid per peptide
Property label: Peptide Concentration-induced 50% ANTS/DPX leakage at pH 4.8, POPC Vesicle (L/P)
Please reply with the bare figure in L/P and do not write the unit itself.

CC(C)C[C@H](NC(=O)CN)C(=O)N[C@@H](CC(C)C)C(=O)N[C@@H](CC(=O)O)C(=O)N[C@@H](CC(C)C)C(=O)N[C@@H](CC(C)C)C(=O)N[C@@H](Cc1c[nH]cn1)C(=O)N[C@@H](CC(C)C)C(=O)N[C@@H](CC(C)C)C(=O)N[C@@H](CC(C)C)C(=O)N[C@@H](CCCCN)C(=O)N[C@@H](C)C(=O)N[C@@H](C)C(=O)NCC(=O)N[C@@H](Cc1c[nH]c2ccccc12)C(N)=O = 47

Please examine the following record next.
Write down Peptide Concentration-induced 50% ANTS/DPX leakage at pH 4.8, POPC Vesicle measured for item CC(C)C[C@H](NC(=O)CN)C(=O)N[C@@H](CC(C)C)C(=O)N[C@@H](Cc1c[nH]cn1)C(=O)N[C@@H](CC(C)C)C(=O)N[C@@H](CC(C)C)C(=O)N[C@@H](CCCCN)C(=O)N[C@@H](CC(C)C)C(=O)N[C@@H](CC(C)C)C(=O)N[C@@H](CC(C)C)C(=O)N[C@@H](Cc1c[nH]cn1)C(=O)N[C@@H](C)C(=O)N[C@@H](C)C(=O)NCC(=O)N[C@@H](Cc1c[nH]c2ccccc12)C(N)=O
193

###

# Measurement protocol: Tryptophan fluorescent binding assay, POPC vesicles
# Experimental context: 50 μM peptide, PBS pH 7.4, lipid per peptide
Lipid Concentration-induced 50% Peptide Binding, POPC Vesicle values by entry
Please reply with the bare figure in L/P and do not write the unit itself.

CC(C)C[C@H](NC(=O)CN)C(=O)N[C@@H](CC(C)C)C(=O)N[C@@H](CCC(=O)O)C(=O)N[C@@H](CC(C)C)C(=O)N[C@@H](CC(C)C)C(=O)N[C@@H](CCCCN)C(=O)N[C@@H](CC(C)C)C(=O)N[C@@H](CC(C)C)C(=O)N[C@@H](CC(C)C)C(=O)N[C@@H](CCCCN)C(=O)N[C@@H](C)C(=O)N[C@@H](C)C(=O)NCC(=O)N[C@@H](Cc1c[nH]c2ccccc12)C(N)=O = 1.50
CC(C)C[C@H](NC(=O)CN)C(=O)N[C@@H](CC(C)C)C(=O)N[C@@H](CCC(=O)O)C(=O)N[C@@H](CC(C)C)C(=O)N[C@@H](CC(C)C)C(=O)N[C@@H](Cc1c[nH]cn1)C(=O)N[C@@H](CC(C)C)C(=O)N[C@@H](CC(C)C)C(=O)N[C@@H](CC(C)C)C(=O)N[C@@H](CCCCN)C(=O)N[C@@H](C)C(=O)N[C@@H](C)C(=O)NCC(=O)N[C@@H](Cc1c[nH]c2ccccc12)C(N)=O = 0.56

Write down Lipid Concentration-induced 50% Peptide Binding, POPC Vesicle measured for item CC(C)C[C@H](NC(=O)CN)C(=O)N[C@@H](CC(C)C)C(=O)N[C@@H](Cc1c[nH]cn1)C(=O)N[C@@H](CC(C)C)C(=O)N[C@@H](CC(C)C)C(=O)N[C@@H](CCCCN)C(=O)N[C@@H](CC(C)C)C(=O)N[C@@H](CC(C)C)C(=O)N[C@@H](CC(C)C)C(=O)N[C@@H](CCCCN)C(=O)N[C@@H](C)C(=O)N[C@@H](C)C(=O)NCC(=O)N[C@@H](Cc1c[nH]c2ccccc12)C(N)=O
0.18

Write down Lipid Concentration-induced 50% Peptide Binding, POPC Vesicle measured for item CC(C)C[C@H](NC(=O)CN)C(=O)N[C@@H](CC(C)C)C(=O)N[C@@H](Cc1c[nH]cn1)C(=O)N[C@@H](CC(C)C)C(=O)N[C@@H](CC(C)C)C(=O)N[C@@H](Cc1c[nH]cn1)C(=O)N[C@@H](CC(C)C)C(=O)N[C@@H](CC(C)C)C(=O)N[C@@H](CC(C)C)C(=O)N[C@@H](CCCCN)C(=O)N[C@@H](C)C(=O)N[C@@H](C)C(=O)NCC(=O)N[C@@H](Cc1c[nH]c2ccccc12)C(N)=O
0.68

Write down Lipid Concentration-induced 50% Peptide Binding, POPC Vesicle measured for item CC(C)C[C@H](NC(=O)CN)C(=O)N[C@@H](CC(C)C)C(=O)N[C@@H](Cc1c[nH]cn1)C(=O)N[C@@H](CC(C)C)C(=O)N[C@@H](CC(C)C)C(=O)N[C@@H](CCCCN)C(=O)N[C@@H](CC(C)C)C(=O)N[C@@H](CC(C)C)C(=O)N[C@@H](CC(C)C)C(=O)N[C@@H](Cc1c[nH]cn1)C(=O)N[C@@H](C)C(=O)N[C@@H](C)C(=O)NCC(=O)N[C@@H](Cc1c[nH]c2ccccc12)C(N)=O
0.18

###

Peptide Concentration-induced 50% ANTS/DPX leakage at pH 4.8, POPC Vesicle values by entry
# Measurement protocol: ANTS/DPX liposome leakage assay, POPC vesicles
# Format: biochemical
# Experimental context: 0.5 mM vesicles, pH 4.8, lipid per peptide
Please reply with the bare figure in L/P and do not write the unit itself.

CC(C)C[C@H](NC(=O)CN)C(=O)N[C@@H](CC(C)C)C(=O)N[C@@H](CC(=O)O)C(=O)N[C@@H](CC(C)C)C(=O)N[C@@H](CC(C)C)C(=O)N[C@@H](Cc1c[nH]cn1)C(=O)N[C@@H](CC(C)C)C(=O)N[C@@H](CC(C)C)C(=O)N[C@@H](CC(C)C)C(=O)N[C@@H](CCC(=O)O)C(=O)N[C@@H](C)C(=O)N[C@@H](C)C(=O)NCC(=O)N[C@@H](Cc1c[nH]c2ccccc12)C(N)=O = 58

Write down Peptide Concentration-induced 50% ANTS/DPX leakage at pH 4.8, POPC Vesicle measured for item CC(C)C[C@H](NC(=O)CN)C(=O)N[C@@H](CC(C)C)C(=O)N[C@@H](Cc1c[nH]cn1)C(=O)N[C@@H](CC(C)C)C(=O)N[C@@H](CC(C)C)C(=O)N[C@@H](Cc1c[nH]cn1)C(=O)N[C@@H](CC(C)C)C(=O)N[C@@H](CC(C)C)C(=O)N[C@@H](CC(C)C)C(=O)N[C@@H](Cc1c[nH]cn1)C(=O)N[C@@H](C)C(=O)N[C@@H](C)C(=O)NCC(=O)N[C@@H](Cc1c[nH]c2ccccc12)C(N)=O
173

Write down Peptide Concentration-induced 50% ANTS/DPX leakage at pH 4.8, POPC Vesicle measured for item CC(C)C[C@H](NC(=O)CN)C(=O)N[C@@H](CC(C)C)C(=O)N[C@@H](Cc1c[nH]cn1)C(=O)N[C@@H](CC(C)C)C(=O)N[C@@H](CC(C)C)C(=O)N[C@@H](CCCCN)C(=O)N[C@@H](CC(C)C)C(=O)N[C@@H](CC(C)C)C(=O)N[C@@H](CC(C)C)C(=O)N[C@@H](CCC(=O)O)C(=O)N[C@@H](C)C(=O)N[C@@H](C)C(=O)NCC(=O)N[C@@H](Cc1c[nH]c2ccccc12)C(N)=O
173

Write down Peptide Concentration-induced 50% ANTS/DPX leakage at pH 4.8, POPC Vesicle measured for item CC(C)C[C@H](NC(=O)CN)C(=O)N[C@@H](CC(C)C)C(=O)N[C@@H](CC(=O)O)C(=O)N[C@@H](CC(C)C)C(=O)N[C@@H](CC(C)C)C(=O)N[C@@H](CCCCN)C(=O)N[C@@H](CC(C)C)C(=O)N[C@@H](CC(C)C)C(=O)N[C@@H](CC(C)C)C(=O)N[C@@H](CCC(=O)O)C(=O)N[C@@H](C)C(=O)N[C@@H](C)C(=O)NCC(=O)N[C@@H](Cc1c[nH]c2ccccc12)C(N)=O
21
